Where these numbers come from: ChEMBL document CHEMBL1275399

Experiment: Clearance in Sprague-Dawley rat at 10 mg/kg, po and 10 mg/kg iv
Assay type: ADME, organism-based
Settings: in vivo
ENDPOINT NAME: clearance
Give me the value, and tack the unit on after it.

CCN(CC)CCN1CCc2[nH]c(/C=C3\C(=O)Nc4ccc(F)cc43)c(C)c2C1=O ... 64.5 mL/min/kg

Data request: # input compound: Cc1c(/C=C2\C(=O)Nc3ccc(F)cc32)[nH]c2c1C(=O)N(C[C@H](O)CN1CCOCC1)CC2 ; wanted: its clearance
Data returned: 17 mL/min/kg

Data request: Record: CCN(CC)CCN1CCCc2[nH]c(/C=C3\C(=O)Nc4ccc(F)cc43)c(C)c2C1=O
Data returned: 22.8 mL/min/kg

Data request: Record: Cc1c(/C=C2\C(=O)Nc3ccc(F)cc32)[nH]c2c1C(=O)N(C[C@H](O)CN1CCOCC1)CCC2
Data returned: 21 mL/min/kg

###

Tested on: Rattus norvegicus
Assay: AUC in Sprague-Dawley rat at 40 mg/kg, po
Type: ADME, organism-based, Plasma
Design: dose 40 mg/kg, route oral
Conditions: in vivo
Reported AUC values for a set of molecules
Report the figure in ug/hr.ml without appending any unit label.

Cc1c(/C=C2\C(=O)Nc3ccc(F)cc32)[nH]c2c1C(=O)N(C[C@H](O)CN1CCOCC1)CCC2 ... 49.21
CCN(CC)CCN1CCCc2[nH]c(/C=C3\C(=O)Nc4ccc(F)cc43)c(C)c2C1=O ... 27.61
Cc1c(/C=C2\C(=O)Nc3ccc(F)cc32)[nH]c2c1C(=O)N(C[C@H](O)CN1CCOCC1)CC2 ... 41.18

// moving on: another record for AUC
Data request: Could you share what AUC was measured for CCN(CC)CCN1CCc2[nH]c(/C=C3\C(=O)Nc4ccc(F)cc43)c(C)c2C1=O , tested on Rattus norvegicus?
Data returned: 10.96

###

Test: Half life in Sprague-Dawley rat at 10 mg/kg, po and 10 mg/kg iv
Format: ADME, organism-based
Conditions: in vivo
ENDPOINT NAME: half-life (h)
Report the figure in h without appending any unit label.

CCN(CC)CCN1CCc2[nH]c(/C=C3\C(=O)Nc4ccc(F)cc43)c(C)c2C1=O ... 18
Cc1c(/C=C2\C(=O)Nc3ccc(F)cc32)[nH]c2c1C(=O)N(C[C@H](O)CN1CCOCC1)CCC2 ... 3.76
Cc1c(/C=C2\C(=O)Nc3ccc(F)cc32)[nH]c2c1C(=O)N(C[C@H](O)CN1CCOCC1)CC2 ... 3.41

// moving on: another record for half-life
Data request: # input compound: CCN(CC)CCN1CCCc2[nH]c(/C=C3\C(=O)Nc4ccc(F)cc43)c(C)c2C1=O ; wanted: its half-life
Data returned: 9.65

###

Target: Mast/stem cell growth factor receptor Kit (Homo sapiens, UniProt P10721)
Sequence (P10721 whole entry): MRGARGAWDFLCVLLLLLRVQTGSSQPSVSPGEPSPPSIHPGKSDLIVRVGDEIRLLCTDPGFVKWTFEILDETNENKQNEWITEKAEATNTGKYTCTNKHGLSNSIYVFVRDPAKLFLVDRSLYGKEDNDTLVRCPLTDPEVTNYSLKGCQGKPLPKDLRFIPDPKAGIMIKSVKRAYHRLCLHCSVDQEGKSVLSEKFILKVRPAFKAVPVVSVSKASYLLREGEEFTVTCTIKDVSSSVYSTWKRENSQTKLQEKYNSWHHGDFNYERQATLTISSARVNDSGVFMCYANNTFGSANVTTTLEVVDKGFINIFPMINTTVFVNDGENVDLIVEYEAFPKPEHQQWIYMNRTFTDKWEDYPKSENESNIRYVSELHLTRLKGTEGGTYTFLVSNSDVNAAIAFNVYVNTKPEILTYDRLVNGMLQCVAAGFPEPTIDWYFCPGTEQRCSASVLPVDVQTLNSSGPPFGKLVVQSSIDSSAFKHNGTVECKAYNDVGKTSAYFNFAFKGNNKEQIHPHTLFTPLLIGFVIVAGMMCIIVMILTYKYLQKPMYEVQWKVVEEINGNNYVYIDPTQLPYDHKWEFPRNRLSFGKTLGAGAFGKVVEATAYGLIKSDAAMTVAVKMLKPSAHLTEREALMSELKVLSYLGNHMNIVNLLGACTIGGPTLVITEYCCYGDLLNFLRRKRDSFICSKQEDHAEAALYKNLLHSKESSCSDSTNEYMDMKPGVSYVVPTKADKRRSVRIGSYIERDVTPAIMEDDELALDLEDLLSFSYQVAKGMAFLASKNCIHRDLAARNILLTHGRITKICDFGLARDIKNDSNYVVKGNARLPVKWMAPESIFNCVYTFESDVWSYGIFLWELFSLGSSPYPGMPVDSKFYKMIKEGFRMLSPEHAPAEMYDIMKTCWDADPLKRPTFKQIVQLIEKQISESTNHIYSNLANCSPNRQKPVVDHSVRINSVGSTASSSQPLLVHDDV
ENDPOINT NAME: IC50 (nM)
Report the figure in nM without appending any unit label.

Cc1c(/C=C2\C(=O)Nc3ccc(F)cc32)[nH]c2c1C(=O)N(C[C@H](O)CN1CCOCC1)CCC2 [HENATINIB] ... 8

Data request: # input compound: CCN(CC)CCN1CCc2[nH]c(/C=C3\C(=O)Nc4ccc(Br)cc43)c(C)c2C1=O ; wanted: its IC50
Data returned: 4

Data request: Record: CCN(CC)CCN1CCCCc2[nH]c(/C=C3\C(=O)Nc4ccc(F)cc43)c(C)c2C1=O
Data returned: 9

Data request: Record: CCN(CC)CCN1CCc2[nH]c(/C=C3\C(=O)Nc4ccc(F)cc43)c(C)c2C1=O [FAMITINIB]
Data returned: 2

Data request: Record: CCN(CC)CCN1CCc2[nH]c(/C=C3\C(=O)Nc4ccc(Cl)cc43)c(C)c2C1=O
Data returned: 4

Data request: Record: Cc1c(/C=C2\C(=O)Nc3ccc(F)cc32)[nH]c2c1C(=O)N(CCN1CCOCC1)CCC2
Data returned: 4
